# experimentalTarget: CaM (Bos taurus, UniProt P62157)
# Construct: made in house; host or cells: E. coli BL21 (DE3)
# testDetails: Pull-down assay with immobilized protein and LSM libraries
# Assay type: binding, bovine
# conditionParameters: H14 library; 1:2 stoichiometry assumed; read-out: Surface mapping KD (apparent)
pKd: −log10 of the molar value.
Quick rule: pKd of at least 5 means T, below that means F.

IN: # bool: pKd of "CC[C@H](C)[C@@H](CC(=O)N[C@H]1CCCC[C@@H]1C(N)=O)NC(=O)[C@H]1CCCC[C@@H]1NC(=O)[C@H]1CCCC[C@@H]1NC(=O)C[C@H](Cc1ccccc1)NC(=O)[C@H]1CCCC[C@@H]1N" >= 5
OUT: T

IN: # bool: pKd of "C[C@@H](O)[C@@H](CC(=O)N[C@H]1CCCC[C@@H]1C(=O)N[C@H]1CCCC[C@@H]1C(=O)N[C@@H](CC(N)=O)CC(=O)N[C@H]1CCCC[C@@H]1C(N)=O)NC(=O)[C@H]1CCCC[C@@H]1N" >= 5
OUT: F

IN: # bool: pKd of "C[C@@H](O)[C@@H](CC(=O)N[C@H]1CCCC[C@@H]1C(=O)N[C@H]1CCCC[C@@H]1C(=O)N[C@H](CC(=O)N[C@H]1CCCC[C@@H]1C(N)=O)Cc1c[nH]c2ccccc12)NC(=O)[C@H]1CCCC[C@@H]1N" >= 5
OUT: F

IN: # bool: pKd of "C[C@@H](CC(=O)N[C@H]1CCCC[C@@H]1C(N)=O)NC(=O)[C@H]1CCCC[C@@H]1NC(=O)[C@H]1CCCC[C@@H]1NC(=O)C[C@H](CCCNC(=N)N)NC(=O)[C@H]1CCCC[C@@H]1N" >= 5
OUT: F

IN: # bool: pKd of "N=C(N)NCCC[C@@H](CC(=O)N[C@H]1CCCC[C@@H]1C(=O)N[C@H]1CCCC[C@@H]1C(=O)N[C@H](CC(=O)N[C@H]1CCCC[C@@H]1C(N)=O)Cc1ccccc1)NC(=O)[C@H]1CCCC[C@@H]1N" >= 5
OUT: T

###

Please respond with reported Kd for every item in the list.
# experimentalTarget: S100B (Homo sapiens, UniProt P04271)
# Construct: made in house; host or cells: Escherichia coli BL21(DE3)
# Sequence (P04271 whole entry): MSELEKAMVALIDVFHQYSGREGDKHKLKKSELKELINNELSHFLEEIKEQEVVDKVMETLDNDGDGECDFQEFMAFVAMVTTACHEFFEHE
# testDetails: Pull-down assay with immobilized protein and LSM libraries
# Type: binding
# conditionParameters: H14 library; 1:1 binding assumed; read-out: Surface mapping KD (apparent)
Only the number, expressed in µM, is required.

Entry "CC(C)C[C@@H](CC(=O)N[C@H]1CCCC[C@@H]1C(=O)N[C@H]1CCCC[C@@H]1C(=O)N[C@@H](CCC(N)=O)CC(=O)N[C@H]1CCCC[C@@H]1C(N)=O)NC(=O)[C@H]1CCCC[C@@H]1N" — recorded Kd = 435

Entry "NCCCC[C@@H](CC(=O)N[C@H]1CCCC[C@@H]1C(=O)N[C@H]1CCCC[C@@H]1C(=O)N[C@@H](CCC(=O)O)CC(=O)N[C@H]1CCCC[C@@H]1C(N)=O)NC(=O)[C@H]1CCCC[C@@H]1N" — recorded Kd = 324

Entry "CC(C)[C@@H](CC(=O)N[C@H]1CCCC[C@@H]1C(N)=O)NC(=O)[C@H]1CCCC[C@@H]1NC(=O)[C@H]1CCCC[C@@H]1NC(=O)C[C@@H](NC(=O)[C@H]1CCCC[C@@H]1N)C(C)C" — recorded Kd = 73

Entry "CC(C)[C@@H](CC(=O)N[C@H]1CCCC[C@@H]1C(=O)N[C@H]1CCCC[C@@H]1C(=O)N[C@H](CC(=O)N[C@H]1CCCC[C@@H]1C(N)=O)[C@@H](C)O)NC(=O)[C@H]1CCCC[C@@H]1N" — recorded Kd = 382

Entry "NC(=O)[C@H]1CCCC[C@@H]1NC(=O)C[C@H](Cc1c[nH]c2ccccc12)NC(=O)[C@H]1CCCC[C@@H]1NC(=O)[C@H]1CCCC[C@@H]1NC(=O)C[C@H](Cc1ccc(O)cc1)NC(=O)[C@H]1CCCC[C@@H]1N" — recorded Kd = 42

Entry "CC[C@H](C)[C@@H](CC(=O)N[C@H]1CCCC[C@@H]1C(N)=O)NC(=O)[C@H]1CCCC[C@@H]1NC(=O)[C@H]1CCCC[C@@H]1NC(=O)C[C@@H](NC(=O)[C@H]1CCCC[C@@H]1N)C(C)C" — recorded Kd = 43

Entry "CC(C)[C@@H](CC(=O)N[C@H]1CCCC[C@@H]1C(=O)N[C@H]1CCCC[C@@H]1C(=O)N[C@H](CC(=O)N[C@H]1CCCC[C@@H]1C(N)=O)Cc1c[nH]c2ccccc12)NC(=O)[C@H]1CCCC[C@@H]1N" — recorded Kd = 16

Entry "CC(C)[C@@H](CC(=O)N[C@H]1CCCC[C@@H]1C(N)=O)NC(=O)[C@H]1CCCC[C@@H]1NC(=O)[C@H]1CCCC[C@@H]1NC(=O)C[C@H](Cc1ccc(O)cc1)NC(=O)[C@H]1CCCC[C@@H]1N" — recorded Kd = 112

Entry "CSCC[C@@H](CC(=O)N[C@H]1CCCC[C@@H]1C(=O)N[C@H]1CCCC[C@@H]1C(=O)N[C@@H](CCCNC(=N)N)CC(=O)N[C@H]1CCCC[C@@H]1C(N)=O)NC(=O)[C@H]1CCCC[C@@H]1N" — recorded Kd = 92

Entry "NC(=O)C[C@@H](CC(=O)N[C@H]1CCCC[C@@H]1C(N)=O)NC(=O)[C@H]1CCCC[C@@H]1NC(=O)[C@H]1CCCC[C@@H]1NC(=O)C[C@H](Cc1c[nH]c2ccccc12)NC(=O)[C@H]1CCCC[C@@H]1N" — recorded Kd = 168

Entry "CSCC[C@@H](CC(=O)N[C@H]1CCCC[C@@H]1C(N)=O)NC(=O)[C@H]1CCCC[C@@H]1NC(=O)[C@H]1CCCC[C@@H]1NC(=O)C[C@H](C)NC(=O)[C@H]1CCCC[C@@H]1N" — recorded Kd = 256

Entry "NC(=O)[C@H]1CCCC[C@@H]1NC(=O)C[C@H](Cc1c[nH]c2ccccc12)NC(=O)[C@H]1CCCC[C@@H]1NC(=O)[C@H]1CCCC[C@@H]1NC(=O)C[C@H](CC(=O)O)NC(=O)[C@H]1CCCC[C@@H]1N" — recorded Kd = 200

Entry "CC[C@H](C)[C@@H](CC(=O)N[C@H]1CCCC[C@@H]1C(N)=O)NC(=O)[C@H]1CCCC[C@@H]1NC(=O)[C@H]1CCCC[C@@H]1NC(=O)C[C@H](CCSC)NC(=O)[C@H]1CCCC[C@@H]1N" — recorded Kd = 62

Entry "C[C@@H](O)[C@@H](CC(=O)N[C@H]1CCCC[C@@H]1C(N)=O)NC(=O)[C@H]1CCCC[C@@H]1NC(=O)[C@H]1CCCC[C@@H]1NC(=O)C[C@H](CCCNC(=N)N)NC(=O)[C@H]1CCCC[C@@H]1N" — recorded Kd = 324

Entry "CC(C)C[C@@H](CC(=O)N[C@H]1CCCC[C@@H]1C(N)=O)NC(=O)[C@H]1CCCC[C@@H]1NC(=O)[C@H]1CCCC[C@@H]1NC(=O)C[C@H](CO)NC(=O)[C@H]1CCCC[C@@H]1N" — recorded Kd = 380

Entry "C[C@@H](CC(=O)N[C@H]1CCCC[C@@H]1C(=O)N[C@H]1CCCC[C@@H]1C(=O)N[C@@H](CCCCN)CC(=O)N[C@H]1CCCC[C@@H]1C(N)=O)NC(=O)[C@H]1CCCC[C@@H]1N" — recorded Kd = 180

Entry "CSCC[C@@H](CC(=O)N[C@H]1CCCC[C@@H]1C(N)=O)NC(=O)[C@H]1CCCC[C@@H]1NC(=O)[C@H]1CCCC[C@@H]1NC(=O)C[C@H](CCSC)NC(=O)[C@H]1CCCC[C@@H]1N" — recorded Kd = 174

Entry "CC[C@H](C)[C@@H](CC(=O)N[C@H]1CCCC[C@@H]1C(N)=O)NC(=O)[C@H]1CCCC[C@@H]1NC(=O)[C@H]1CCCC[C@@H]1NC(=O)C[C@H](Cc1ccc(O)cc1)NC(=O)[C@H]1CCCC[C@@H]1N" — recorded Kd = 62

Recorded values, source paper PMC8162404.
